B1: HDAC6 (parent)
chain: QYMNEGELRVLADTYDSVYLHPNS

Variants of: B1
test: protein stability index of a GFP-peptide fusion (GPS, HEK-293T) (PSI 1-6); higher = more stable;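 note: lentivirally expressed fusions sorted by FACS into six bins by GFP to DsRed ratio, PSI derived from sequencing read proportions per bin multiplied by bin number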
run-parameters: c terminus: a fixed tail appended
readout-type: protein stability index

Some entries whose results are on file:
>  <variant-key>
N23V

>  <protein stability index>
2.03

$$$$
>  <variant-key>
A12Q

>  <protein stability index>
2.04

$$$$

Let us move to another entry and its protein stability index.
**Q:** Output measured protein stability index for this item: N4S
**A:** 2.05
